# system tested: T1, LILRB1-ECD-HIS (SinoBiological Cat #: 16014-H02H) (human, UniProt Q8NHL6 24-461)
# T1 construct: Bought protein; also called monomeric antigen LILRB1-ECD-HIS; not shown: His tag
# T1 sequence (Q8NHL6 other isoform, or with tags, fused parts or gaps H02H H02H): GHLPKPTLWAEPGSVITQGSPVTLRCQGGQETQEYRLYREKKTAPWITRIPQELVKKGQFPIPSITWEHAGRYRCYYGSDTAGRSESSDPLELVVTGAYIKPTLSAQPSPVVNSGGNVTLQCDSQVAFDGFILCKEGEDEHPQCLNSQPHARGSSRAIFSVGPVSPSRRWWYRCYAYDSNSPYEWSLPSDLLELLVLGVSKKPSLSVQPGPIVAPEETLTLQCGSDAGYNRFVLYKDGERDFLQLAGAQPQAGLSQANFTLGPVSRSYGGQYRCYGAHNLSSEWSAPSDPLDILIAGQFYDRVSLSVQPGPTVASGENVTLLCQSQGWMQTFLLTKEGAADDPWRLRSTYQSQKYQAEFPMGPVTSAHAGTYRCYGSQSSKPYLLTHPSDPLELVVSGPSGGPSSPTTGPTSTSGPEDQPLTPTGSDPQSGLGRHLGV
# protocol details: SPR (Carterra LSA), antibody captured, antigen injected;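 further: kd obtained from kinetic analysis of antibody binding to the antigen, with association and dissociation phases fitted in the instrument software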
value type: pKd
Friendly reminder that pKd comes from taking -log10 of the concentration in mol/L.

// below: answered binders
| binder | value type | value reported |
| --- | --- | --- |
| #16 (antibody, human IgG1, V domains shown, also called D2M002-016) VH: EVQLQQSGAELMKPGASVKISCKATGNTFSSYWIEWVKQRPGHDLEWIGEILPGSGSTNYNEKFKGKATFTADTSSNTAYMQLNSLTSEDSAVYYCARSGAGGYDSGAFAYWGQGTLVTVSA VL: DIEMTQSPASLAVSLGQRATISCRASESIDSYGNSFMHWYQQKPGQPPKLLIYRTSNLESGIPARFSGSGSRTDFTLTINPVEADDVATYYCQQSNEDPWTFGGGTKLEIK | pKd | 9.15 |
| #8 (antibody, human IgG1, V domains shown, also called D2M002-008) VH: EVQLQQPGAELMKPGASVKISCKATGYTFSSSWTEWVKQRPGHGLEWIGEILPGSGSTNYNEKFKGKATFTADTSSNTAYMQLSSLTSEDSAVYYCARSGAGGYDSGAFAYWGQGTLVTVSA VL: DIVLTQSPASLAVSLGQRATISCRASESIDTYGNSFMHWYQQKPGQPPKLLIYRTSNLESGIPARFSGSGSRTDFTLTINPVEADDVATYYCQQSNEDPWTFGGGTKLEIK | pKd | 9.19 |

So what's the measured pKd for this one? #31 (antibody, human IgG1, V domains shown, also called D2M002-031) VH: QVQMQPFGAELMKPGASVRISCKATGYTFSSSWIEWVKQRPGHGLEWIGEILPGSGTTNYNEKFKGKATFTADTSSNTAYMQLSSLTSEDSAVYYCARSGAGGYDSGAFTYWGQGTLVTVSA VL: DIVLTQSPASLAVSLGQRATISCRASESIDTYGNSFMHWYQQKPGQPPKLLIYRASNLESGIPARFSGSGSRTDFTLTINPVEADDVATYYCQQSNEDPWTFGGGTKLEIK 7.70
